Reported pKi for target or system 5-hydroxytryptamine receptor 2A (Homo sapiens), by entry.
API: returns pKi as number; meaning -log10 of concentration in mol/L.

Qu. Query (compound): `Oc1ccc(-c2ccc(CNCCc3c[nH]c4ncc(F)cc34)o2)cc1` ; field requested: pKi
Ans. 7.49

Qu. What do you get for `Oc1ccc(-c2ccc(CNCCc3c[nH]c4ccc(F)cc34)o2)cc1` ?
Ans. 7.96

Qu. What do you get for `Cc1ccc2[nH]cc(CCNCc3ccc(-c4ccc(O)cc4)o3)c2c1` ?
Ans. 7.66

Qu. What do you get for `Oc1ccc(-c2ccc(CNCCc3c[nH]c4ccc(Cl)cc34)o2)cc1` ?
Ans. 7.48

Qu. What do you get for `COc1ccc2[nH]cc(CCNCc3ccc(-c4cn[nH]c4)o3)c2c1` ?
Ans. 7.55

Qu. What do you get for `COc1ccc2[nH]c(C)c(CCNCc3ccc(-c4ccc(O)cc4)o3)c2c1` ?
Ans. 7.38

Qu. What do you get for `COc1cccc2[nH]cc(CCNCc3ccc(-c4ccc(O)cc4)o3)c12` ?
Ans. 6.88

Qu. What do you get for `COc1ccc2[nH]cc(CCNCc3ccc(-c4cccc(O)c4)o3)c2c1` ?
Ans. 7.54

---

assay: Half life in rat liver microsomes up to 60 mins by HPLC-LC/MS analysis; conditions: liver microsomes
Provide the reported half-life at 1 h of each item.
Dear colleague, please send the value followed by its unit.

Qu. Query (molecule): `COc1ccc2[nH]cc(CCNCc3ccc(-c4ccc(O)cc4)o3)c2c1` ; field requested: half-life at 1 h
Ans. 22 min

Qu. What do you get for `COc1ccc2[nH]c(C)c(CCNCc3ccc(-c4ccc(O)cc4)o3)c2c1` ?
Ans. 8 min

Qu. What do you get for `Oc1ccc(-c2ccc(CNCCc3c[nH]c4ncc(F)cc34)o2)cc1` ?
Ans. 14 min

Qu. What do you get for `Oc1ccc(-c2ccc(CNCCc3c[nH]c4ccccc34)o2)cc1` ?
Ans. 6 min

---

molecular target: D(2) dopamine receptor (Homo sapiens)
Sequence (P14416 whole entry): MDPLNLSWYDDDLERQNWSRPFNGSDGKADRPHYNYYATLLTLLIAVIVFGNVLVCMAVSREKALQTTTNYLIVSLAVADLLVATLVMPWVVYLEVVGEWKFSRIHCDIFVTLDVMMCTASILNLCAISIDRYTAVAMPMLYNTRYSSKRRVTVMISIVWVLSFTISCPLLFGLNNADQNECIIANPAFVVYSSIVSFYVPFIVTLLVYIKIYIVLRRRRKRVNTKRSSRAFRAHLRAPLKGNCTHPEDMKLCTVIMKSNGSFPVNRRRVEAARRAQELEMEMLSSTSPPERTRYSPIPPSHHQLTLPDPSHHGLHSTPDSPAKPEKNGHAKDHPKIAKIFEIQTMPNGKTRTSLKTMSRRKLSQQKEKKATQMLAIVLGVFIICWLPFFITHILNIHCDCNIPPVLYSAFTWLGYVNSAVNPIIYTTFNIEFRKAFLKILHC
pKi: −log10 of the molar value.
Decide using pKi: a value greater than or equal to 6 is Criterion met, a smaller one is Criterion not met.

Qu. Entry `Oc1ccc(-c2ccc(CNCCc3c[nH]c4ccc(F)cc34)o2)cc1` : is its pKi no less than 6?
Ans. Criterion met

Qu. What do you get for `COc1ccc2[nH]cc(CCNCc3ccc(-c4cccc(O)c4)o3)c2c1` ?
Ans. Criterion met

Qu. What do you get for `COc1ccc2[nH]cc(CCNCc3ccc(-c4cn[nH]c4)o3)c2c1` ?
Ans. Criterion not met

Qu. What do you get for `CN(CCc1c[nH]c2ccccc12)Cc1ccc(-c2ccccc2)o1` ?
Ans. Criterion met

---

molecular target: UniProt:P08684
Sequence (P08684 whole entry): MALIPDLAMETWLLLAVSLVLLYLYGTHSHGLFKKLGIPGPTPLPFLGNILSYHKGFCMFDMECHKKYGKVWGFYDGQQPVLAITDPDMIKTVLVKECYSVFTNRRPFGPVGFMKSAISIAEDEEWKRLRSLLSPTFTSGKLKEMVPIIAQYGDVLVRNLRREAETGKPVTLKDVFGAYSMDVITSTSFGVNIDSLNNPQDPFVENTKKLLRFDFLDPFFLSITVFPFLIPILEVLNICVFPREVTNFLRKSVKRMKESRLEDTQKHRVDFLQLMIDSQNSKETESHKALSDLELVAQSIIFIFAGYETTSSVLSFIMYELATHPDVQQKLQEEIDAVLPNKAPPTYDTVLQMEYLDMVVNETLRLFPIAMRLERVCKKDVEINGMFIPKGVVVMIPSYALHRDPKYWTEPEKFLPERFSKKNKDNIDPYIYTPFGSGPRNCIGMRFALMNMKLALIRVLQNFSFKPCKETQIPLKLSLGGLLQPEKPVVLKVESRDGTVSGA
readout_type: pIC50
API: returns pIC50 as number; meaning -log10 of concentration in mol/L.

Qu. Query (molecule): `Oc1ccc(-c2ccc(CNCCc3c[nH]c4ncc(F)cc34)o2)cc1` ; field requested: pIC50
Ans. 5.11

---

assay: Half life in rat liver microsomes up to 60 mins by HPLC-LC/MS analysis; settings: microsomes
readout_type: half-life at 1 h (min)
Numeric only. Scale: min

Qu. Query (compound): `Oc1ccc(-c2ccc(CNCCc3c[nH]c4ccc(F)cc34)o2)cc1` ; field requested: half-life at 1 h
Ans. 6

Qu. What do you get for `Fc1ccc2c(CCNCc3cccc(OCC(F)(F)C(F)F)c3)c[nH]c2c1` ?
Ans. 14

Qu. What do you get for COc1cc2c(cc1OC)C(=O)C(CC1CCN(Cc3ccccc3)CC1)C2 (centres undefined) ?
Ans. 96

Qu. What do you get for `COc1ccc2[nH]cc(CCN(C)Cc3ccc(-c4ccc(O)cc4)o3)c2c1` ?
Ans. 10

---

assay: Ratio of Cmax in brain to plasma in Wistar rat at 10 mg/kg, po; format: ADME, organism-based; conditions: read-out: BPR
readout_type: Kp
Respond with the number and no other words.

Qu. Query (compound): `Oc1ccc(-c2ccc(CNCCc3c[nH]c4ncc(F)cc34)o2)cc1` ; field requested: Kp
Ans. 0.7

---

Reported Ki for target or system 5-hydroxytryptamine receptor 7 (Homo sapiens, UniProt P34969), by entry.
Numeric only. Scale: nM

Qu. Query (molecule): `COc1ccc2[nH]c(C)c(CCNCc3ccc(-c4ccc(O)cc4)o3)c2c1` ; field requested: Ki
Ans. 5320

Qu. What do you get for `COc1ccc2[nH]cc(CCNCc3ccc(-c4ccc(Cl)cc4)o3)c2c1` ?
Ans. 2170

Qu. What do you get for `CN(CCc1c[nH]c2ccccc12)Cc1ccc(-c2ccccc2)o1` ?
Ans. 525

Qu. What do you get for `COc1cccc(-c2ccc(CNCCc3c[nH]c4ccc(OC)cc34)o2)c1` ?
Ans. 871

Qu. What do you get for `COc1ccc(-c2ccc(CNCCc3c[nH]c4ccc(OC)cc34)o2)cc1` ?
Ans. 3300

Qu. What do you get for `COc1ccc2[nH]cc(CCNCc3ccc(-c4cnc5ccccc5c4)o3)c2c1` ?
Ans. 9860

Qu. What do you get for `COc1cccc2[nH]cc(CCNCc3ccc(-c4ccc(O)cc4)o3)c12` ?
Ans. 2100

---

target: 5-hydroxytryptamine receptor 6 (Homo sapiens, UniProt P50406); test: Displacement of [3H]-LSD from human 5-HT6R expressed in HEK293 cells after 1 hr by microbeta plate reader analysis; assay type: cell-based
Sequence (P50406 whole entry): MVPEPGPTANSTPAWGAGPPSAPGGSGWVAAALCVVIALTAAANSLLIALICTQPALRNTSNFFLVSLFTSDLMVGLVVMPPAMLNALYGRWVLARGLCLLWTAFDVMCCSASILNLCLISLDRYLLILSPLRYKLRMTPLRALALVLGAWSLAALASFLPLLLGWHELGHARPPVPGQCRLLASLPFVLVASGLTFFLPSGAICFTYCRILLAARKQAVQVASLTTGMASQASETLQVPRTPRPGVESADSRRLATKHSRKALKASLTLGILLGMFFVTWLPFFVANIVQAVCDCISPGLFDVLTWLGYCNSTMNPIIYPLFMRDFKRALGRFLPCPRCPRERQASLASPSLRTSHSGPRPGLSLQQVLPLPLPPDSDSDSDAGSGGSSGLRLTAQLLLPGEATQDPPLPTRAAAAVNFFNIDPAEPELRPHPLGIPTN
# note: boundary value 0.3 µM maps to Condition not met; Ki below it maps to Condition met

Qu. Hello, I'm reviewing records and need to know if Ki of `COc1cccc(-c2ccc(CNCCc3c[nH]c4ccc(OC)cc34)o2)c1` is below 0.3 µM. Could you check?
Ans. Condition met

Qu. What do you get for `COc1ccc2[nH]cc(CCNCc3ccc(-c4cn[nH]c4)o3)c2c1` ?
Ans. Condition met

Qu. What do you get for `COc1ccc2[nH]cc(CCNCc3ccc(-c4cccc(O)c4)o3)c2c1` ?
Ans. Condition met

Qu. What do you get for `Oc1ccc(-c2ccc(CNCCc3c[nH]c4ncccc34)o2)cc1` ?
Ans. Condition not met

Qu. What do you get for `COc1ccc(-c2ccc(CNCCc3c[nH]c4ccccc34)o2)cc1OC` ?
Ans. Condition not met

Qu. What do you get for `COc1ccc2[nH]cc(CCNCc3ccc(-c4cnc5ccccc5c4)o3)c2c1` ?
Ans. Condition met

Qu. What do you get for `COc1ccc(-c2ccc(CNCCc3c[nH]c4ccc(OC)cc34)o2)cc1` ?
Ans. Condition met

Qu. What do you get for `CCCN(CCc1c[nH]c2ccccc12)Cc1ccc(-c2ccccc2)o1` ?
Ans. Condition not met

Qu. What do you get for `COc1cccc(-c2ccc(CNCCc3c[nH]c4cccc(OC)c34)o2)c1` ?
Ans. Condition met

Qu. What do you get for `Oc1ccc(-c2ccc(CNCCc3coc4ccc(F)cc34)o2)cc1` ?
Ans. Condition not met

Qu. What do you get for `Oc1ccc(-c2ccc(CNCCc3c[nH]c4ccc(F)cc34)o2)cc1` ?
Ans. Condition met

Qu. What do you get for `c1ccc(-c2ccc(CNCCc3c[nH]c4ccccc34)o2)cc1` ?
Ans. Condition met

Qu. What do you get for COc1ccc2[nH]cc(CC(C)NCc3ccc(-c4ccc(O)cc4)o3)c2c1 (configuration not stated) ?
Ans. Condition not met

Qu. What do you get for `Oc1ccc(-c2ccc(CNCCc3c[nH]c4ccc(Cl)cc34)o2)cc1` ?
Ans. Condition met

Qu. What do you get for `COc1ccc2occ(CCNCc3ccc(-c4ccc(O)cc4)o3)c2c1` ?
Ans. Condition not met

Qu. What do you get for `c1ccc(-c2ccc(CNCCc3c[nH]c4ccccc34)[nH]2)cc1` ?
Ans. Condition met

Qu. What do you get for `Oc1ccc(-c2ccc(CNCCc3c[nH]c4ccccc34)o2)cc1` ?
Ans. Condition met

Qu. What do you get for `O=[N+]([O-])c1ccc(-c2ccc(CNCCc3c[nH]c4ccccc34)o2)cc1` ?
Ans. Condition not met

Qu. What do you get for `COc1ccc2[nH]cc(CCNCc3ccc(-c4cc(Cl)cc(Cl)c4)o3)c2c1` ?
Ans. Condition met

Qu. What do you get for `CN(CCc1c[nH]c2ccccc12)Cc1ccc(-c2ccccc2)o1` ?
Ans. Condition met

Qu. What do you get for `Clc1cc(Cl)cc(-c2ccc(CNCCc3c[nH]c4ccccc34)o2)c1` ?
Ans. Condition met

Qu. What do you get for `Oc1ccc(-c2ccc(CNCCc3c[nH]c4ncc(F)cc34)o2)cc1` ?
Ans. Condition met

---

Target chain: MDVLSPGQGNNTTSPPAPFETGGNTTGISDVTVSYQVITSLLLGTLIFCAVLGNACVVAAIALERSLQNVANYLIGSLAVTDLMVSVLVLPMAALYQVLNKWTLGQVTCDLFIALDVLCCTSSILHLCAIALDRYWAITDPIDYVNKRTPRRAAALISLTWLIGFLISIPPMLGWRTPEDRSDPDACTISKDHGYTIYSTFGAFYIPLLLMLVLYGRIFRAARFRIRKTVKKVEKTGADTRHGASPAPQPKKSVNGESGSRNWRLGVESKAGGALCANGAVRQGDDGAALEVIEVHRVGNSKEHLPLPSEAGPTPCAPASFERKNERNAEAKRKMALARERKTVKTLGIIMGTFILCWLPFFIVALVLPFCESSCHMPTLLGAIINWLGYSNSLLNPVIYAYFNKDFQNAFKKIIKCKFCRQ
# note: boundary value 200 nM maps to Not met; Ki below it maps to Met

Qu. Hello, I'm reviewing records and need to know if Ki of `Oc1ccc(-c2ccc(CNCCc3c[nH]c4ccccc34)o2)cc1` is below 200 nM. Could you check?
Ans. Not met

Qu. What do you get for `COc1ccc2[nH]cc(CCNCc3ccc(-c4cn[nH]c4)o3)c2c1` ?
Ans. Met

Qu. What do you get for `COc1cccc2[nH]cc(CCNCc3ccc(-c4ccc(O)cc4)o3)c12` ?
Ans. Not met

Qu. What do you get for `Oc1ccc(-c2ccc(CNCCc3c[nH]c4ccc(F)cc34)o2)cc1` ?
Ans. Not met

Qu. What do you get for `c1ccc(-c2ccc(CNCCc3c[nH]c4ccccc34)o2)cc1` ?
Ans. Met

Qu. What do you get for `COc1ccc2[nH]cc(CCNCc3ccc(-c4ccc(O)cc4)o3)c2c1` ?
Ans. Met

Qu. What do you get for `Oc1ccc(-c2ccc(CNCCc3c[nH]c4ncc(F)cc34)o2)cc1` ?
Ans. Not met

Qu. What do you get for `COc1ccc2[nH]cc(CCNCc3ccc(-c4cnc5ccccc5c4)o3)c2c1` ?
Ans. Not met

Qu. What do you get for `CN(CCc1c[nH]c2ccccc12)Cc1ccc(-c2ccccc2)o1` ?
Ans. Not met

Qu. What do you get for `COc1ccc2[nH]cc(CCNCc3ccc(-c4ccc(Cl)cc4)o3)c2c1` ?
Ans. Not met
